System: DLD-1
assay text: Chemosensitivity, 96 h continuous exposure, MTT assay
Type: cell-based, human
assay setup: IC50 MCF10A / IC50 DLD-1

molecule	Selectivity index (MCF10A)
O=P([O-])([O-])[O-].[Cu+2].[Cu+2].[Cu+2].c1ccc(-c2csc(NCCN(CCNc3nc(-c4ccccn4)cs3)CCNc3nc(-c4ccccn4)cs3)n2)nc1.c1ccc(-c2csc(NCCN(CCNc3nc(-c4ccccn4)cs3)CCNc3nc(-c4ccccn4)cs3)n2)nc1 [[L2Cu3(PO4)]3+]	77.52
O=P([O-])([O-])Oc1ccccc1.[Cu+2].[Cu+2].[Cu+2].c1ccc(-c2csc(NCCN(CCNc3nc(-c4ccccn4)cs3)CCNc3nc(-c4ccccn4)cs3)n2)nc1.c1ccc(-c2csc(NCCN(CCNc3nc(-c4ccccn4)cs3)CCNc3nc(-c4ccccn4)cs3)n2)nc1 [[L2Cu3(O3POPh)]4+]	131.32
[Cu+2].[Cu+2].[Cu+2].c1ccc(-c2csc(NCCN(CCNc3nc(-c4ccccn4)cs3)CCNc3nc(-c4ccccn4)cs3)n2)nc1.c1ccc(-c2csc(NCCN(CCNc3nc(-c4ccccn4)cs3)CCNc3nc(-c4ccccn4)cs3)n2)nc1 [[L2Cu3]6+]	365.61
O=S(=O)(O)O.[Zn+2].[Zn+2].[Zn+2].c1ccc(-c2csc(NCCN(CCNc3nc(-c4ccccn4)cs3)CCNc3nc(-c4ccccn4)cs3)n2)nc1.c1ccc(-c2csc(NCCN(CCNc3nc(-c4ccccn4)cs3)CCNc3nc(-c4ccccn4)cs3)n2)nc1 [[L2Zn3(SO4)]4+]	45.05
